- Experimental target: Ionotropic glutamate receptor NMDA 1/2D (Rattus norvegicus) (UniProt P35439+Q62645)
- Run description: Positive allosteric modulation of recombinant rat GluN1/GluN2D receptor expressed in xenopus laevis oocyte assessed as potentiation of glutamate and glycine-induced current response at 30 uM at holding potential -40mV by two electrode voltage clamp method relative to control
Recorded measurements of Activity, one per entry

[
  {
    "Compound": "CCOc1ccc(OCC2c3ccc(OC(C)C)cc3CCN2C(=O)c2ccc(F)c(Cl)c2)cc1 (stereo unspecified)",
    "Activity (%)": 133
  },
  {
    "Compound": "COc1ccc(OCC2c3ccc(OC(C)C)cc3CCN2C(=O)c2ccc(OC)cc2)cc1 (stereo unspecified)",
    "Activity (%)": 114
  },
  {
    "Compound": "CCOc1ccc(OCC2c3ccc(OC(C)C)cc3CCN2C(=O)c2ccccc2F)cc1 (stereo unspecified)",
    "Activity (%)": 55
  },
  {
    "Compound": "CCOc1ccc(OCC2c3ccc(OC(C)C)cc3CCN2C(=O)c2ccc(Cl)cc2)cc1 (stereo unspecified)",
    "Activity (%)": 88
  },
  {
    "Compound": "CCOc1ccc(OCC2c3ccc(OCC(C)C)cc3CCN2C(=O)c2cccc(Cl)c2)cc1 (stereo unspecified)",
    "Activity (%)": 342
  },
  {
    "Compound": "COc1ccc(OCC2c3ccc(OC(C)C)cc3CCN2C(=O)c2cccc(N)c2)cc1 (stereo unspecified)",
    "Activity (%)": 107
  }
]

Attribution: ChEMBL document CHEMBL4011622
